Biological target: T1, CRBN, Q96SW2;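 note: pooled lentiviral library of zinc finger degron-EGFP fusions in mCherry-positive Jurkat cells, FACS-sorted after compound exposure, with degron abundance counted by next-generation sequencing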
T1 chain: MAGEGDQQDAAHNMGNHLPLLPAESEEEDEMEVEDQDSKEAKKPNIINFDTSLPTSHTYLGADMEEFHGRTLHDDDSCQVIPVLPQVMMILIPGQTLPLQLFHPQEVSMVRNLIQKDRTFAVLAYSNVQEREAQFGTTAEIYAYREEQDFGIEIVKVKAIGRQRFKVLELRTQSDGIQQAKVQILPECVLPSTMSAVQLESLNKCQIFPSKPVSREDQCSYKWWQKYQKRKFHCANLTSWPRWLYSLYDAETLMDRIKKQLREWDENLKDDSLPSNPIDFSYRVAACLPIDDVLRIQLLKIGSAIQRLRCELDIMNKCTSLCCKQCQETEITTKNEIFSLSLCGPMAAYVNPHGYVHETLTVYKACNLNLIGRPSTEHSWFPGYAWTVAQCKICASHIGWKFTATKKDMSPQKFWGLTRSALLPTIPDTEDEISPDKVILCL
Assay: log2 fold change of degron read counts, EGFP-low vs EGFP+ sorted cells (limma voom), compound-induced degradation; higher = more compound-induced degradation of the degron-EGFP fusion; degrons are variants of IKZF1/3 zinc finger 2; compound dose not given here
Conditions: Jurkat; 18 h; compound: compound 19 (5-tert-butyl-thalidomide)
Over roughly 8,300 sequences, “log2 fold change of degron read counts, EGFP-low vs EGFP+ sorted cells (limma voom), compound-induced degradation” has its median near -1.1; the highest 2% begin near 3.2. The sample holds the highest values, similar sequences and a random draw of the others, so the mix is not that of the screen.
observable: log2 fold change of degron read counts

chain: FMCPICGRPFTQKGNLLRHIKL [46F_47M_49P_50I_52G_53R_54P_55F_67L_, Q9UKT9]
observable: log2 fold change of degron read counts
measured_value: 0.216
//
chain: FFCDICGAGFTQKGNLLRHIKL [46F_47F_49D_50I_52G_53A_54G_55F_67L_, Q9UKT9]
observable: log2 fold change of degron read counts
measured_value: 2.9
//
chain: FWCPICGAQFTQKGNLLRHIKL [46F_47W_49P_50I_52G_53A_54Q_55F_67L_, Q9UKT9]
observable: log2 fold change of degron read counts
measured_value: 3.01
